Target Desc: HIV-1 SF162 Env (HIV-1 strain SF162, UniProt P19550 32-847)
Assay Procedure: cell-based or functional assay
I'd be grateful if you could share measured IC50 neutralization, 18 hour virus/Ab incubation for these entries.

**Q:** Query (binder): 1443_C16 (PG16) (TCN-116) (antibody, V domains shown) VH: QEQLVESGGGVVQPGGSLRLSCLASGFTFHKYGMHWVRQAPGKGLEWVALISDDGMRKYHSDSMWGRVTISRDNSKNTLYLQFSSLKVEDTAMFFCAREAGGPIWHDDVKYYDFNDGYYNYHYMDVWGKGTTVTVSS VL: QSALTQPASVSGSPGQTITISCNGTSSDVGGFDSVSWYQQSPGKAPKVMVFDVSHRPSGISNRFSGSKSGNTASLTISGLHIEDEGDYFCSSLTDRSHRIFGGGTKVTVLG ; field requested: IC50 neutralization, 18 hour virus/Ab incubation
**A:** > 50 µg/mL

**Q:** Consider the binder 1496_C09 (PG9) (TCN-109) (antibody, V domains shown) VH: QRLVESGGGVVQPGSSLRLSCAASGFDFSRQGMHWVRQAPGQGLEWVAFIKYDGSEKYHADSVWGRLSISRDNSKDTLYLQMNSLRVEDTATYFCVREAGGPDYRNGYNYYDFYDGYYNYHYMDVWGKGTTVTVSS VL: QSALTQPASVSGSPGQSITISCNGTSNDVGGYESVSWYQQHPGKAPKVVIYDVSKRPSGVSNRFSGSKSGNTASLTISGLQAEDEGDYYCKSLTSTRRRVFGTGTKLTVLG and give its measured IC50 neutralization, 18 hour virus/Ab incubation.
**A:** > 50 µg/mL

**Q:** Find the recorded IC50 neutralization, 18 hour virus/Ab incubation belonging to 1495_C14 (PGC14) (antibody, human IgG1, lambda, V domains shown) VH: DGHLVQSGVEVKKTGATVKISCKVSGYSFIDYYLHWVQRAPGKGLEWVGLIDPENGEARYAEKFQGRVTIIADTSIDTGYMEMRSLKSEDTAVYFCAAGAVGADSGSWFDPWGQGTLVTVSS VL: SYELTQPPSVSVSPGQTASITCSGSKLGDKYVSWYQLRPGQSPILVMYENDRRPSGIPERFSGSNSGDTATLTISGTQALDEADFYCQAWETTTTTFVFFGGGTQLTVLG and report it.
**A:** < 0.0025 µg/mL
